These data points were gathered from ChEMBL document CHEMBL3407339.

fold change (FC): recorded values
System: Salmonella typhimurium
measurement_notes: Mutagenicity in Salmonella typhimurium TA98 at 0.3125 mg/ml after 48 hrs by AMES MPF assay in absence of Sprague-Dawley rat liver microsomal S9 fraction relative to baseline
Assay type: toxicity, organism-based
condition_parameters: salmonella enterica subsp. enterica serovar typhimurium
Hey, just send me the number, nothing else.

{"compound": "Fc1ccc(C2CC(c3ccc(Cl)s3)=NN2c2nc(-c3ccc(Cl)cc3)cs2)cc1 (stereo unspecified)", "study_target": "Salmonella typhimurium", "outcome_measure": "fold change (FC)", "numeric_value": 0}
{"compound": "Cc1ccc(C2=NN(c3nc(-c4ccc(S(C)(=O)=O)cc4)cs3)C(c3ccc(F)cc3)C2)s1 (stereo unspecified)", "study_target": "Salmonella typhimurium", "outcome_measure": "fold change (FC)", "numeric_value": 0.22}
{"compound": "Fc1ccc(C2CC(c3ccc(Cl)s3)=NN2c2nc(-c3ccccc3)cs2)cc1 (stereo unspecified)", "study_target": "Salmonella typhimurium", "outcome_measure": "fold change (FC)", "numeric_value": 0}
{"compound": "Fc1ccc(C2CC(c3ccc(Cl)s3)=NN2c2nc(-c3ccc(C(F)(F)F)cc3)cs2)cc1 (stereo unspecified)", "study_target": "Salmonella typhimurium", "outcome_measure": "fold change (FC)", "numeric_value": 0.33}
{"compound": "Cc1ccc(C2=NN(c3nc(-c4ccc(C#N)cc4)cs3)C(c3ccc(F)cc3)C2)s1 (stereo unspecified)", "study_target": "Salmonella typhimurium", "outcome_measure": "fold change (FC)", "numeric_value": 1.56}

For the next question, use this compound.
In: // map Fc1ccc(C2CC(c3ccc(Cl)s3)=NN2c2nc(-c3ccc(Br)cc3)cs2)cc1 (stereo unspecified) to recorded fold change (FC) (system: Salmonella typhimurium)
Out: 0.32

---

Some compounds, each annotated with its measured fold change (FC).
System: Salmonella typhimurium
measurement_notes: Mutagenicity in Salmonella typhimurium TA100 at 0.156 mg/ml after 48 hrs by AMES MPF assay in absence of Sprague-Dawley rat liver microsomal S9 fraction relative to baseline
Type: toxicity, organism-based
condition_parameters: salmonella enterica subsp. enterica serovar typhimurium

These recorded examples may help you get a feel for the data.
{"compound": "Fc1ccc(C2CC(c3ccc(Cl)s3)=NN2c2nc(-c3ccc(Cl)cc3)cs2)cc1 (stereo unspecified)", "fold change (FC)": 1.67}
{"compound": "Fc1ccc(C2CC(c3ccc(Cl)s3)=NN2c2nc(-c3ccccc3)cs2)cc1 (stereo unspecified)", "fold change (FC)": 0}
{"compound": "Cc1ccc(C2=NN(c3nc(-c4ccc(C#N)cc4)cs3)C(c3ccc(F)cc3)C2)s1 (stereo unspecified)", "fold change (FC)": 0.8}
{"compound": "Fc1ccc(C2CC(c3ccc(Cl)s3)=NN2c2nc(-c3ccc(Br)cc3)cs2)cc1 (stereo unspecified)", "fold change (FC)": 1}

In: What measured fold change (FC) goes with Cc1ccc(C2=NN(c3nc(-c4ccc(S(C)(=O)=O)cc4)cs3)C(c3ccc(F)cc3)C2)s1 (stereo unspecified) ?
Out: 0.78

In: And for Fc1ccc(C2CC(c3ccc(Cl)s3)=NN2c2nc(-c3ccc(C(F)(F)F)cc3)cs2)cc1 (stereo unspecified) ?
Out: 0.67

---

System: Salmonella typhimurium
measurement_notes: Mutagenicity in Salmonella typhimurium TA98 at 5 mg/ml after 48 hrs by AMES MPF assay in absence of Sprague-Dawley rat liver microsomal S9 fraction relative to baseline
Assay type: toxicity, organism-based
condition_parameters: salmonella enterica subsp. enterica serovar typhimurium
// reported fold change (FC) per item
No unit in the answer, only the number.

Would you please look over these solved cases?
{"molecule": "Fc1ccc(C2CC(c3ccc(Cl)s3)=NN2c2nc(-c3ccc(Br)cc3)cs2)cc1 (stereo unspecified)", "fold change (FC)": 0}
{"molecule": "Cc1ccc(C2=NN(c3nc(-c4ccc(S(C)(=O)=O)cc4)cs3)C(c3ccc(F)cc3)C2)s1 (stereo unspecified)", "fold change (FC)": 0.89}
{"molecule": "Fc1ccc(C2CC(c3ccc(Cl)s3)=NN2c2nc(-c3ccc(Cl)cc3)cs2)cc1 (stereo unspecified)", "fold change (FC)": 1}
{"molecule": "Fc1ccc(C2CC(c3ccc(Cl)s3)=NN2c2nc(-c3ccc(C(F)(F)F)cc3)cs2)cc1 (stereo unspecified)", "fold change (FC)": 0.67}
{"molecule": "Fc1ccc(C2CC(c3ccc(Cl)s3)=NN2c2nc(-c3ccccc3)cs2)cc1 (stereo unspecified)", "fold change (FC)": 0.67}

Proceeding to the next molecule to report its fold change (FC).
In: Reported fold change (FC), molecule Cc1ccc(C2=NN(c3nc(-c4ccc(C#N)cc4)cs3)C(c3ccc(F)cc3)C2)s1 (stereo unspecified) : ____
Out: 1.33
